A collection of compounds and their measured ε340 nm
- Measurement description: Absorption coefficient of reactants, products and catalysts (UV-Vis)
- Assay type: physicochemical
- Details: MeOH
The answer is to be given in M⁻¹ cm⁻¹; state only the numeric part.

Worked examples, 4 compounds total:
Compound: O=Cc1ccc([N+](=O)[O-])cc1
Readout name: ε340 nm
Assay value: 312.5
//
Compound: O=[N+]([O-])/C=C/c1ccccc1 [Nitrostyrene, trans-β-nitrostyrene]
Readout name: ε340 nm
Assay value: 15390.7
//
Compound: CC(=O)CC(C)=O
Readout name: ε340 nm
Assay value: 31.1
//
Compound: CN(CCCNC(=O)c1ccc(-c2ccc(C(=O)NCCCN(C)CCc3ccc(/N=N\c4ccccc4)cc3)cc2)cc1)CCc1ccc(/N=N\c2ccccc2)cc1
Readout name: ε340 nm
Assay value: 2937.1

--- query ---
Ask: What does the record list as ε340 nm for CC[N+](=O)[O-] ?
Reply: 1.3
